# target.entity: Cytochrome P450 2C9 (Homo sapiens) (UniProt P11712)
# Sequence (P11712 whole entry, looked up): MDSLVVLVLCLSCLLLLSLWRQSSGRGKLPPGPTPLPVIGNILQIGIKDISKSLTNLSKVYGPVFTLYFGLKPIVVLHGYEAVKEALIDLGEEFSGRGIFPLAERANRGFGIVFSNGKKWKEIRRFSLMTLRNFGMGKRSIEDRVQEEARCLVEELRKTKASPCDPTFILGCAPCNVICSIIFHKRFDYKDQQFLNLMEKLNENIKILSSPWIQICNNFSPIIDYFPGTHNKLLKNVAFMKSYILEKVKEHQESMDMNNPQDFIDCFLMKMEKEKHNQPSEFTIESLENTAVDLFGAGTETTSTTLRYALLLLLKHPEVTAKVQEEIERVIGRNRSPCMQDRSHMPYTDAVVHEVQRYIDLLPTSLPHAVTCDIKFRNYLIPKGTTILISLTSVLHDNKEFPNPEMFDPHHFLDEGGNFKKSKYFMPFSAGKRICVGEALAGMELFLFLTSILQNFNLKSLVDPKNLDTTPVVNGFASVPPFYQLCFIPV
# test.description: Cytochrome P450 Family 2 Subfamily C Member 9 (CYP2C9) small molecule antagonists: luciferase reporter qHTS assay (AID 1671198); also: nearly all actives have a fitted effect of over 50% in size
# experimental.parameters: P450-Glo CYP2C9 enzyme assay, luciferin luminescence; series mostly up to 53 µM
Inconclusive results are not listed. Activity calls are given as the source filed them. Calls follow the shape of the dose curve; as a rule, active = well fitted inhibition curve with a large enough effect in the repeat runs; inconclusive = weak or mixed curves; inactive = no such curve, though single readings can be large or run the other way.
Labels: true = active, false = inactive

INSERT INTO assay_data (compound, target_entity, label) VALUES
  ('CCN[C@H]1CN(CCCOC)S(=O)(=O)c2sc(S(N)(=O)=O)cc21', 'Cytochrome P450 2C9 (Homo sapiens) (UniProt P11712)', 'false'),
  ('Cc1ccsc1C(=CCCN1CCC[C@@H](C(=O)O)C1)c1sccc1C', 'Cytochrome P450 2C9 (Homo sapiens) (UniProt P11712)', 'false'),
  ('C[C@@H](N)C(=O)O', 'Cytochrome P450 2C9 (Homo sapiens) (UniProt P11712)', 'false'),
  ('COc1cc(C)ccc1C(C)C', 'Cytochrome P450 2C9 (Homo sapiens) (UniProt P11712)', 'false'),
  ('NC(=O)NS(=O)(=O)c1ccc(Cl)cc1', 'Cytochrome P450 2C9 (Homo sapiens) (UniProt P11712)', 'false'),
  ('CCCCCCCCCC#N', 'Cytochrome P450 2C9 (Homo sapiens) (UniProt P11712)', 'false'),
  ('C=Cc1ccccc1', 'Cytochrome P450 2C9 (Homo sapiens) (UniProt P11712)', 'false'),
  ('CC(=O)N(CC(O)CN(C(C)=O)c1c(I)c(C(=O)NCC(O)CO)c(I)c(C(=O)NCC(O)CO)c1I)c1c(I)c(C(=O)NCC(O)CO)c(I)c(C(=O)NCC(O)CO)c1I (stereo not drawn)', 'Cytochrome P450 2C9 (Homo sapiens) (UniProt P11712)', 'false'),
  ('FC(F)(F)c1ccccc1', 'Cytochrome P450 2C9 (Homo sapiens) (UniProt P11712)', 'false'),
  ('CCCCCCCCCCCCOCCOS(=O)(=O)O', 'Cytochrome P450 2C9 (Homo sapiens) (UniProt P11712)', 'true'),
  ('CC(C)C(=O)OCC(C)(C)C(O)C(C)C (stereo not drawn)', 'Cytochrome P450 2C9 (Homo sapiens) (UniProt P11712)', 'false'),
  ('Cc1cc2nc(N)sc2cc1C', 'Cytochrome P450 2C9 (Homo sapiens) (UniProt P11712)', 'true'),
  ('Cc1cc(S(=O)(=O)O)c(N)cc1Cl', 'Cytochrome P450 2C9 (Homo sapiens) (UniProt P11712)', 'true'),
  ('CCCCCCn1c(=O)c2c(ncn2C)n(C)c1=O', 'Cytochrome P450 2C9 (Homo sapiens) (UniProt P11712)', 'false'),
  ('CCN(CC)CCNC(=O)COc1ccc(Cl)cc1', 'Cytochrome P450 2C9 (Homo sapiens) (UniProt P11712)', 'false'),
  ('CCc1cc2cc(OC)c(OC)cc2c(Cc2ccccc2)n1', 'Cytochrome P450 2C9 (Homo sapiens) (UniProt P11712)', 'true'),
  ('COc1ccc(S(=O)(=O)Nc2nnc(CC(C)C)s2)cc1', 'Cytochrome P450 2C9 (Homo sapiens) (UniProt P11712)', 'true'),
  ('CC(C)S', 'Cytochrome P450 2C9 (Homo sapiens) (UniProt P11712)', 'false'),
  ('Cc1ccc([N+](=O)[O-])cc1Cl', 'Cytochrome P450 2C9 (Homo sapiens) (UniProt P11712)', 'false'),
  ('CCCS(=O)c1ccc2nc(NC(=O)OC)[nH]c2c1 (stereo not drawn)', 'Cytochrome P450 2C9 (Homo sapiens) (UniProt P11712)', 'false'),
  ('CCOc1ccc(NS(=O)(=O)c2ccc(N)cc2)nn1', 'Cytochrome P450 2C9 (Homo sapiens) (UniProt P11712)', 'false'),
  ('COc1ccccc1OCC(O)COC(N)=O (stereo not drawn)', 'Cytochrome P450 2C9 (Homo sapiens) (UniProt P11712)', 'false'),
  ('O=C1N(c2ccccc2)c2ccccc2C1(Cc1ccncc1)Cc1ccncc1', 'Cytochrome P450 2C9 (Homo sapiens) (UniProt P11712)', 'true'),
  ('O=C(O)c1cccc(Cl)c1Cl', 'Cytochrome P450 2C9 (Homo sapiens) (UniProt P11712)', 'false'),
  ('OCc1c2ccccc2cc2ccccc12', 'Cytochrome P450 2C9 (Homo sapiens) (UniProt P11712)', 'true'),
  ('FC(F)(F)C(Cl)(Cl)Cl', 'Cytochrome P450 2C9 (Homo sapiens) (UniProt P11712)', 'false'),
  ('C=CC(C)(O)CC/C=C(\C)CCC=C(C)C (stereo not drawn)', 'Cytochrome P450 2C9 (Homo sapiens) (UniProt P11712)', 'true'),
  ('COc1ccc(Nc2ccc(OC)cc2)cc1', 'Cytochrome P450 2C9 (Homo sapiens) (UniProt P11712)', 'true');

The values you see were collected from PubChem BioAssay (Tox21).
